Biological target: C-C chemokine receptor type 10 (Homo sapiens) (UniProt P46092)
Sequence (whole entry): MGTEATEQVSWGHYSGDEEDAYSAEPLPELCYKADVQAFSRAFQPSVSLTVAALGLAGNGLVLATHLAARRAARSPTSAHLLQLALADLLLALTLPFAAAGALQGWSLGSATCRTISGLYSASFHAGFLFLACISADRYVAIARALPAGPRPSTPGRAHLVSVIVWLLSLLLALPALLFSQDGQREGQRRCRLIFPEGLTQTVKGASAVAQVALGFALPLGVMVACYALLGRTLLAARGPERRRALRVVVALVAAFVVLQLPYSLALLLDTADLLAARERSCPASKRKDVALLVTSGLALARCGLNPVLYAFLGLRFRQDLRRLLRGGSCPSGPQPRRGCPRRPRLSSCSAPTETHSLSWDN
Assay: Antagonist activity against human CCR10 expressed in human KJMGER8 cells assessed as inhibition of human recombinant CTACK-induced increase in intracellular calcium level at 100 nmol/L pre-incubated for 30 mins before human recombinant CTACK stimulation for 5 mins by FLIPR assay
Format: functional, cell-based
Entries annotated with measured inhibition

Entry under test: Cc1ccc(Cl)c(Nc2c(C(=O)N3CCC(c4ccc(F)cc4)CC3)cnc3c(S(=O)(=O)NC(=O)NC4CC4(F)F)cnn23)c1 (stereo not drawn) . Its inhibition was > 100%

The reported inhibition of the compound CCNS(=O)(=O)c1cnn2c(Nc3cc(C)ccc3Cl)c(C(=O)N3CCC4(CC3)OCc3ccccc34)cnc12 was 80.3%

Just so you know, measured inhibition for CCNC(=O)NS(=O)(=O)c1cnn2c(Nc3ccc(Cl)c(Cl)c3)c(C(=O)N3CCC(c4ccc(F)cc4)CC3)cnc12 came out at > 100%

Value of measured inhibition for the entry CCC(=O)NS(=O)(=O)c1cnn2c(Nc3cc(Cl)ccc3Cl)c(C(=O)N3CCC(c4ccc(F)cc4)CC3)cnc12 : > 100%

Form: compound = CCC(=O)NS(=O)(=O)c1cnn2c(Nc3cc(C)ccc3Cl)c(C(=O)N3CCC4(CC3)OCc3ccccc34)cnc12 ; inhibition = > 100%

Briefly, inhibition measured for CCNC(=O)NS(=O)(=O)c1cnn2c(Nc3cc(Cl)ccc3Cl)c(C(=O)N3CCC(c4ccc(F)cc4)CC3)cnc12 : 96.7%

Reported inhibition of Cc1cc(F)ccc1Nc1c(C(=O)N2CCC(c3ccc(F)cc3)CC2)cnc2c(S(=O)(=O)NCC(F)(F)F)cnn12 : > 100%

response.value for CCNC(=O)NS(=O)(=O)c1cnn2c(Nc3ccc(F)cc3C)c(C(=O)N3CCC(c4ccccc4)CC3)cnc12 (field: inhibition) = 72.6%

// recorded inhibition for CCNC(=O)NS(=O)(=O)c1cnn2c(Nc3ccccc3Cl)c(C(=O)N3CCC(c4ccccc4)CC3)cnc12 : 92.4%

For reference, reported inhibition for CCC(=O)NS(=O)(=O)c1cnn2c(Nc3cc(C)ccc3F)c(C(=O)N3CCC4(CC3)OCc3ccccc34)cnc12 stands at > 100%

Field inhibition (entry CCONS(=O)(=O)c1cnn2c(Nc3cc(Cl)ccc3Cl)c(C(=O)N3CCC(c4ccc(F)cc4)CC3)cnc12 ) reads > 100%

Value of measured inhibition for the entry Cc1ccc(F)c(Nc2c(C(=O)N3CCC4(CC3)OCc3ccccc34)cnc3c(S(=O)(=O)NC(=O)NC4CC4(F)F)cnn23)c1 (stereo not drawn) : > 100%

For O=C(NS(=O)(=O)c1cnn2c(Nc3cc(Cl)ccc3Cl)c(C(=O)N3CCC4(CC3)OCc3ccccc34)cnc12)C1CC1 the compound record lists inhibition as > 100%

# compound O=C(NS(=O)(=O)c1cnn2c(Nc3ccccc3Cl)c(C(=O)N3CCC(c4ccc(F)cc4)CC3)cnc12)C1CC1 ; its inhibition = 80.6%

Entry Cc1cc(Nc2c(C(=O)N3CCC(c4ccc(F)cc4)CC3)cnc3c(S(=O)(=O)NC(=O)C4CC4)cnn23)c(Cl)cc1F ; inhibition = > 100%
